# assay system: UniProt P37231
# Sequence (P37231 238-503 limits assumed): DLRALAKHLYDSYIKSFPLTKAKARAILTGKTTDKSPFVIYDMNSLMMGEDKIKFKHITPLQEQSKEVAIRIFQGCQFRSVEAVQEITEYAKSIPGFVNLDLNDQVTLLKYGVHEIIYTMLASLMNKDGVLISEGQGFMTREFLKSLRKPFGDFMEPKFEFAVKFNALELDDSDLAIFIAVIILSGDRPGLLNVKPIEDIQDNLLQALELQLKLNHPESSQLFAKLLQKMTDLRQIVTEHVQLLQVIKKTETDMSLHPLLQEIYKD
# assay protocol: Frontal displacement affinity chromatography on PPARγ-OT column
# Assay type: binding
# experimental context: PPARγ-OT Ki (μM) GW1929, marker ligand GW1929 (0.2 μM); immobilized PPARγ-LBD
endpoint name: Ki

O=S(=O)(O)Oc1cc(O)cc(C=Cc2ccc(O)cc2)c1 [Resveratrol-3-O-sulfate, resveratrol-3-O-sulfate]
3.8 µM

Hey, just so you know, these numbers are from paper PMC4104805.
